target: Bromodomain-containing protein 4 (Homo sapiens, UniProt O60885); experiment: Inhibition of recombinant human N-terminal His6-tagged Brd4-BD1 expressed in Escherichia coli BL21(DE3) by LOGSY NMR titration method
Hi there, I'd appreciate the recorded IC50 for every entry that follows.
Give bare numbers, in µM.

[
  {
    "structureString": "COc1ccc(-c2ccc3nnc(C)n3n2)cc1OC",
    "IC50 (µM)": 24
  }
]

Moving on to the next molecule.
Q: Fill in: IC50 of `Cc1nnc2ccc(-c3cnn(C)c3Oc3ccccc3)nn12` is ___
A: 2

Sourced from ChEMBL document CHEMBL4017521
